- target: Serine/threonine-protein kinase TBK1 (Homo sapiens, UniProt Q9UHD2)
- Sequence (Q9UHD2 whole entry): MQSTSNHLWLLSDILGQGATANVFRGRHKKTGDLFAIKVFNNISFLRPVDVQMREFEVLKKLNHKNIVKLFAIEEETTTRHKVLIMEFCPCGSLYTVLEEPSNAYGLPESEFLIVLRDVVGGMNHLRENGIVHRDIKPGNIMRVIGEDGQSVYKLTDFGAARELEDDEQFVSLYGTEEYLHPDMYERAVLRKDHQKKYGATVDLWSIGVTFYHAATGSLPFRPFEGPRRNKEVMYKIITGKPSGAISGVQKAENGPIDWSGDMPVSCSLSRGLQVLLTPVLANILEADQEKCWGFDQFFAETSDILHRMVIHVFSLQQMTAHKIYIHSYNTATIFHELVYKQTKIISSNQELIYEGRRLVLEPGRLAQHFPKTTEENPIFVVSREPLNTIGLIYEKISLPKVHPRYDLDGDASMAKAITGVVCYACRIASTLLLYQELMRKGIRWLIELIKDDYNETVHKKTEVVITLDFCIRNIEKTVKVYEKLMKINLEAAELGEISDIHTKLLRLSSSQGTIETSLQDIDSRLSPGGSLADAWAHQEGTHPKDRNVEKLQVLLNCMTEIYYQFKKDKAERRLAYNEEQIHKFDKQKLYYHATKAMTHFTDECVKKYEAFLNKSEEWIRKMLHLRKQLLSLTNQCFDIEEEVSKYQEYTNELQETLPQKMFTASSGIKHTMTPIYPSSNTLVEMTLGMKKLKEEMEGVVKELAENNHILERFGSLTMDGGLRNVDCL
- assayOverview: Inhibition of recombinant human TBK1 using MBP as substrate in presence of gamma-33P]-ATP by Hotspot assay
outcomeMeasure: IC50 (nM)
Return type: number; implicit unit nM.

What the record says about `Cc1nn(CC(F)(F)F)cc1Nc1ncc(Br)c(NCc2ccc(S(N)(=O)=O)cc2)n1` : IC50 is 158

----------
- assayOverview: Chromatographic lipophilicity, log D of the compound at pH 7.4 by reverse-phase HPLC analysis
- Assay type: physicochemical
- cond: buffer
outcomeMeasure: chromatographic logD
Respond numerically, and do not add a unit to the figure.

Record summary for `Cc1nn(CC(F)(F)F)cc1Nc1ncc(Br)c(NCc2ccc(S(N)(=O)=O)cc2)n1` : reported chromatographic logD = 3.6

Taken from ChEMBL document CHEMBL4364239.
